Reference source for all entries: paper PMC8227119

Assay: Urinary excretion and pharmacokinetics after a single oral dose of 50 mg of pure ecdysterone (LC-MS/MS of urine)
Type: in vivo, human
Conditions: both sexes, human, in vivo, po, 50 mg, human urine, single oral dose 50 mg ecdysterone, mean ± SD of 12 subjects (14-deoxy-poststerone n = 5); read-out: Half Life, Rate of Excretion method (converted)
PROPERTY_MEASURED: half-life (min)
Express the result in min but write the number alone.

Query :: Look up and state reported half-life for "CC(C)(O)CC[C@@H](O)[C@](C)(O)[C@H]1CC[C@@]2(O)C3=CC(=O)[C@@H]4C[C@@H](O)[C@@H](O)C[C@]4(C)[C@H]3CC[C@]12C"
Result :: 204

====

Experiment: Urinary excretion and pharmacokinetics after a single oral dose of 50 mg of pure ecdysterone (LC-MS/MS of urine)
Format: in vivo, human
Details: both sexes, human, urine, po, 50 mg, human urine, single oral dose 50 mg ecdysterone, range over subjects; read-out: Maximum urinary concentration (Cmax), range over subjects
PROPERTY_MEASURED: Cmax

Query :: Look up and state reported Cmax for "CC(C)(O)CC[C@@H](O)[C@](C)(O)[C@H]1CC[C@H]2C3=CC(=O)[C@@H]4C[C@@H](O)[C@@H](O)C[C@]4(C)[C@H]3CC[C@]12C"
Result :: 100 to 6000 ng/mL

Query :: Look up and state reported Cmax for "CC(=O)[C@H]1CC[C@H]2C3=CC(=O)[C@@H]4C[C@@H](O)[C@@H](O)C[C@]4(C)[C@H]3CC[C@]12C"
Result :: 100 to 1500 ng/mL

====

Provide the reported half-life of each item.
Assay: Urinary excretion and pharmacokinetics after a single oral dose of 50 mg of pure ecdysterone (LC-MS/MS of urine)
Assay type: in vivo, human
Conditions: both sexes, human, urine, po, 50 mg, human urine, single oral dose 50 mg ecdysterone, mean ± SD of 12 subjects (14-deoxy-poststerone n = 5); read-out: Half Life, Rate of Excretion method (converted)
Express the result in min but write the number alone.

Query :: Look up and state reported half-life for "CC(C)(O)CC[C@@H](O)[C@](C)(O)[C@H]1CC[C@H]2C3=CC(=O)[C@@H]4C[C@@H](O)[C@@H](O)C[C@]4(C)[C@H]3CC[C@]12C"
Result :: 186

Query :: Look up and state reported half-life for "CC(=O)[C@H]1CC[C@H]2C3=CC(=O)[C@@H]4C[C@@H](O)[C@@H](O)C[C@]4(C)[C@H]3CC[C@]12C"
Result :: 582

====

Assay: Urinary excretion and pharmacokinetics after a single oral dose of 50 mg of pure ecdysterone (LC-MS/MS of urine)
Assay type: in vivo, human
Conditions: both sexes, in vivo; human urine, single oral dose 50 mg ecdysterone, mean ± SD of 12 subjects (14-deoxy-poststerone n = 5); read-out: Tmax (time to maximum urinary concentration)
PROPERTY_MEASURED: Tmax (h)
Express the result in h but write the number alone.

Query :: Look up and state reported Tmax for CC(C)(O)CC[C@@H](O)[C@](C)(O)[C@H]1CC[C@@]2(O)C3=CC(=O)[C@@H]4C[C@@H](O)[C@@H](O)C[C@]4(C)[C@H]3CC[C@]12C [Ecdysterone]
Result :: 4.6

====

Assay: Urinary excretion and pharmacokinetics after a single oral dose of 50 mg of pure ecdysterone (LC-MS/MS of urine)
Type: in vivo, human
Conditions: both sexes, human, in vivo, po, 50 mg, human urine, single oral dose 50 mg ecdysterone, mean ± SD of 12 subjects (14-deoxy-poststerone n = 5); read-out: Half Life, Sigma-Minus method (converted)
PROPERTY_MEASURED: half-life (h)
Express the result in h but write the number alone.

Query :: Look up and state reported half-life for "CC(C)(O)CC[C@@H](O)[C@](C)(O)[C@H]1CC[C@@]2(O)C3=CC(=O)[C@@H]4C[C@@H](O)[C@@H](O)C[C@]4(C)[C@H]3CC[C@]12C"
Result :: 3

====

Test: Urinary excretion and pharmacokinetics after a single oral dose of 50 mg of pure ecdysterone (LC-MS/MS of urine)
Assay type: in vivo, human
Conditions: both sexes, human, in vivo, po, 50 mg, human urine, single oral dose 50 mg ecdysterone; read-out: Urinary half-life (approximate) (converted)
PROPERTY_MEASURED: half-life

Query :: Look up and state reported half-life for "CC(C)(O)CC[C@@H](O)[C@](C)(O)[C@H]1CC[C@@]2(O)C3=CC(=O)[C@@H]4C[C@@H](O)[C@@H](O)C[C@]4(C)[C@H]3CC[C@]12C"
Result :: ~180 min

====

Assay: Urinary excretion and pharmacokinetics after a single oral dose of 50 mg of pure ecdysterone (LC-MS/MS of urine)
Type: in vivo, human
Settings: both sexes; human urine, single oral dose 50 mg ecdysterone, mean ± SD of 12 subjects (14-deoxy-poststerone n = 5); read-out: Tmax (time to maximum urinary concentration)
Provide the reported Tmax of each item.
Express the result in h but write the number alone.

Query :: Look up and state reported Tmax for CC(=O)[C@H]1CC[C@H]2C3=CC(=O)[C@@H]4C[C@@H](O)[C@@H](O)C[C@]4(C)[C@H]3CC[C@]12C [14-deoxy-poststerone, alpha-14-deoxy-poststerone]
Result :: 30.1

Query :: Look up and state reported Tmax for CC(C)(O)CC[C@@H](O)[C@](C)(O)[C@H]1CC[C@H]2C3=CC(=O)[C@@H]4C[C@@H](O)[C@@H](O)C[C@]4(C)[C@H]3CC[C@]12C [14-deoxy-ecdysterone, Alpha-14-deoxy-ecdysterone]
Result :: 19.7
